Molecular target: Cellular tumor antigen p53 (Homo sapiens)
Test: TOX21_p53_BLA_p4_ratio: Tox21 HCT-116 p53 Agonism Beta-lactamase Assay, Ratio, Phase 4 (AID 2283601)
Inconclusive results are not listed. Active and inactive are the calls of the source. How the source made its calls: active means hit-call score of the fitted dose curve at least 0.9, where 1 is the maximum; inconclusive means response in the unintended direction; inactive means score below 0.9.
Form entry, call: pick from 1 for active, -1 for inactive

Known results for compounds:
CC(C)NC(C)Cc1ccc(I)cc1 (centres undefined) :: -1
Oc1ccc2[nH]cc(CCCCN3CC=C(c4ccccc4)CC3)c2c1 :: -1
Cc1cc(C(C)(C)c2cc(C)c(O)c(C)c2)cc(C)c1O :: 1
O=C(O)c1ccccn1 :: -1
CCOP(=O)(OCC)OP(=O)(OCC)OCC :: -1
O=[N+]([O-])c1ccc(CCl)cc1 :: -1
CCOP(=S)(OCC)Oc1ncn(-c2ccccc2)n1 :: -1
CC(Cc1ccc2c(c1)OCO2)NO (centres undefined) :: -1
CC(=O)[C@H]1CC[C@H]2[C@@H]3CC[C@@H]4C[C@H](O)CC[C@]4(C)[C@H]3CC[C@]12C :: -1
CC(N)Cc1ccc(O)cc1 (centres undefined) :: -1

Exercise: How was `CCS(=O)(=O)CCSP(=O)(OC)OC` classified in this test?
Key: -1

Exercise: How was `Cc1cc(OC(=O)N(C)C)nn1C(=O)N(C)C` classified in this test?
Key: -1

Exercise: How was `NC1(c2ccccc2)CCCCC1` classified in this test?
Key: -1

Exercise: How was `CCc1cccc(C)c1N(C(=O)CCl)[C@@H](C)COC` classified in this test?
Key: -1

Exercise: How was `Nc1ccc([N+](=O)[O-])cc1N` classified in this test?
Key: -1

Exercise: How was `CCCCN=C=O` classified in this test?
Key: -1

Exercise: How was `c1ccc(C2CC2)c(OCC2=NCCN2)c1` classified in this test?
Key: -1

Exercise: How was `Cc1nnc2n1-c1sc(Br)cc1C(c1ccccc1Cl)=NC2` classified in this test?
Key: -1

Exercise: How was C=CC(C)(CCC=C(C)C)OC(=O)c1ccccc1N (centres undefined) classified in this test?
Key: -1

Exercise: How was `CN[C@@H]1C[C@@H](c2ccc(Cl)c(Cl)c2)c2ccccc21` classified in this test?
Key: -1

Exercise: How was CCCCC1C(=O)NC(=O)N(C2CCCCC2)C1=O (centres undefined) classified in this test?
Key: -1

Exercise: How was `O=C1c2ccccc2C(=O)c2ccccc21` classified in this test?
Key: -1

Exercise: How was CCNCC(O)c1cccc(O)c1 (centres undefined) classified in this test?
Key: -1

Exercise: How was `CCC[CH2][Sn]([CH2]CCC)([CH2]CCC)[O][Sn]([CH2]CCC)([CH2]CCC)[CH2]CCC` classified in this test?
Key: 1

Exercise: How was `Brc1ccc(Oc2cc(Br)c(Br)cc2Br)c(Br)c1` classified in this test?
Key: -1

Exercise: How was `COc1ccc(Cc2nccc3cc(OC)c(OC)cc23)cc1OC` classified in this test?
Key: -1

Exercise: How was `O=C1C(=O)c2cccc3cccc1c23` classified in this test?
Key: 1

Exercise: How was `CCCN1CCC[C@H](c2cccc(O)c2)C1` classified in this test?
Key: -1

Exercise: How was `C[N+](C)(C)CCCl` classified in this test?
Key: -1
